We begin with a simple list: items and their reported activity (%) at 10 μM.
SYSTEM TESTED: human M1 receptor (hCHRM1) (Homo sapiens)
Construct: expressed in transfected cells
Sequence (P11229 whole entry): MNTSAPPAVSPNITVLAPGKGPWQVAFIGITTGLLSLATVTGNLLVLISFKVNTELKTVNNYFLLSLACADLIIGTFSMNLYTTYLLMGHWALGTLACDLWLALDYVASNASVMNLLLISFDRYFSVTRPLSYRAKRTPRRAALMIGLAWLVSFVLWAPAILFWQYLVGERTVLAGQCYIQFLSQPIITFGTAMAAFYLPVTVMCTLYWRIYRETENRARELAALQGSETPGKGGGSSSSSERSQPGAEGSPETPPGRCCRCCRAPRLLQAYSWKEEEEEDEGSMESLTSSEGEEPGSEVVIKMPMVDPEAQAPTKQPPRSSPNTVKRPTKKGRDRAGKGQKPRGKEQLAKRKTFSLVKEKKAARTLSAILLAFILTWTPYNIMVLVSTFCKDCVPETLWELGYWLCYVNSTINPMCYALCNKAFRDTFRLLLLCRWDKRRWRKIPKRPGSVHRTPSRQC
ASSAY PROTOCOL: Measurement of M1 receptor positive allosteric modulator (M1PAM) activity, calcium fluorescence in CHO-K1 cells
Format: cell-based
TEST PARAMETERS: 10 μM test compound; 100% = acetylcholine final concentration 1 μM, 0% = DMSO
Procedure: Measurement of M1 Receptor Positive Allosteric Modulator (M1PAM) Activity The activity of a test compound in the presence of acetylcholine at EC20 concentration (final concentration 0.8-1.0 nM), which affords an action corresponding to about 20% of the maximum activity, was measured as PAM activity. The method is as follows. […]
READOUT KIND: activity (%) at 10 μM

[
  {
    "CHEM SMILES": "Cc1c(Cc2ccc(C(=O)NC3CC3)c(F)c2)cc2c(=O)n([C@H]3CCOC[C@@H]3O)cnc2c1C",
    "READOUT KIND": "activity (%) at 10 μM",
    "NUMERIC VALUE": 111
  },
  {
    "CHEM SMILES": "Cc1c(Cc2ccc(C(=O)NC3CC(F)(F)C3)cc2)cc2c(=O)n([C@H]3CCOC[C@@H]3O)cnc2c1C",
    "READOUT KIND": "activity (%) at 10 μM",
    "NUMERIC VALUE": 109
  },
  {
    "CHEM SMILES": "Cc1c(Cc2ccc(-c3ccn(C)n3)nc2)cc2c(=O)n([C@H]3CCOC[C@@H]3O)cnc2c1C",
    "READOUT KIND": "activity (%) at 10 μM",
    "NUMERIC VALUE": 101
  }
]
